Settings: in acetonitrile, 293.15 K
Quantity: solubility (mole fraction)
Write the number on its own, no unit after it.

Look up solubility (mole fraction): Cc1c(C(=O)c2c[nH]n(C)c2=O)ccc(S(C)(=O)=O)c1C1=NOCC1 0.000934

---

Settings: in isobutyl acetate, 283.15 K
Quantity: solubility (mole fraction)
Write the number on its own, no unit after it.

Look up solubility (mole fraction): Cc1c(C(=O)c2c[nH]n(C)c2=O)ccc(S(C)(=O)=O)c1C1=NOCC1 0.000421

---

Settings: in n-butyl acetate, 288.15 K
Quantity: solubility (mole fraction)

Look up solubility (mole fraction): Cc1c(C(=O)c2c[nH]n(C)c2=O)ccc(S(C)(=O)=O)c1C1=NOCC1 0.000419

---

Settings: in n-butyl acetate, 323.15 K
Quantity: solubility (mole fraction)
Write the number on its own, no unit after it.

Look up solubility (mole fraction): Cc1c(C(=O)c2c[nH]n(C)c2=O)ccc(S(C)(=O)=O)c1C1=NOCC1 0.00134

---

Settings: in ethanol, 313.15 K
Quantity: solubility (mole fraction)
Write the number on its own, no unit after it.

Look up solubility (mole fraction): Cc1c(C(=O)c2c[nH]n(C)c2=O)ccc(S(C)(=O)=O)c1C1=NOCC1 0.000314

---

Settings: in n-propanol, 308.15 K
Quantity: solubility (mole fraction)
Write the number on its own, no unit after it.

Look up solubility (mole fraction): Cc1c(C(=O)c2c[nH]n(C)c2=O)ccc(S(C)(=O)=O)c1C1=NOCC1 0.000217

---

Settings: in isobutyl acetate, 303.15 K
Quantity: solubility (mole fraction)
Write the number on its own, no unit after it.

Look up solubility (mole fraction): Cc1c(C(=O)c2c[nH]n(C)c2=O)ccc(S(C)(=O)=O)c1C1=NOCC1 0.000716

---

Settings: in ethyl acetate, 303.15 K
Quantity: solubility (mole fraction)
Write the number on its own, no unit after it.

Look up solubility (mole fraction): Cc1c(C(=O)c2c[nH]n(C)c2=O)ccc(S(C)(=O)=O)c1C1=NOCC1 0.00107

---

Settings: in n-butanol, 318.15 K
Quantity: solubility (mole fraction)
Write the number on its own, no unit after it.

Look up solubility (mole fraction): Cc1c(C(=O)c2c[nH]n(C)c2=O)ccc(S(C)(=O)=O)c1C1=NOCC1 0.000392

---

Settings: in isobutyl acetate, 288.15 K
Quantity: solubility (mole fraction)
Write the number on its own, no unit after it.

Look up solubility (mole fraction): Cc1c(C(=O)c2c[nH]n(C)c2=O)ccc(S(C)(=O)=O)c1C1=NOCC1 0.000481

---

Settings: in isobutanol, 313.15 K
Quantity: solubility (mole fraction)
Write the number on its own, no unit after it.

Look up solubility (mole fraction): Cc1c(C(=O)c2c[nH]n(C)c2=O)ccc(S(C)(=O)=O)c1C1=NOCC1 0.000247

---

Settings: in ethyl acetate, 283.15 K
Quantity: solubility (mole fraction)
Write the number on its own, no unit after it.

Look up solubility (mole fraction): Cc1c(C(=O)c2c[nH]n(C)c2=O)ccc(S(C)(=O)=O)c1C1=NOCC1 0.000521

---

Settings: in ethyl acetate, 318.15 K
Quantity: solubility (mole fraction)
Write the number on its own, no unit after it.

Look up solubility (mole fraction): Cc1c(C(=O)c2c[nH]n(C)c2=O)ccc(S(C)(=O)=O)c1C1=NOCC1 0.00183

---

Settings: in methanol, 303.15 K
Quantity: solubility (mole fraction)

Look up solubility (mole fraction): Cc1c(C(=O)c2c[nH]n(C)c2=O)ccc(S(C)(=O)=O)c1C1=NOCC1 0.000333

---

Settings: in ethanol, 323.15 K
Quantity: solubility (mole fraction)

Look up solubility (mole fraction): Cc1c(C(=O)c2c[nH]n(C)c2=O)ccc(S(C)(=O)=O)c1C1=NOCC1 0.000541

---

Settings: in methyl acetate, 313.15 K
Quantity: solubility (mole fraction)

Look up solubility (mole fraction): Cc1c(C(=O)c2c[nH]n(C)c2=O)ccc(S(C)(=O)=O)c1C1=NOCC1 0.00251

---

Settings: in THF, 308.15 K
Quantity: solubility (mole fraction)
Write the number on its own, no unit after it.

Look up solubility (mole fraction): Cc1c(C(=O)c2c[nH]n(C)c2=O)ccc(S(C)(=O)=O)c1C1=NOCC1 0.00509

---

Settings: in n-butanol, 308.15 K
Quantity: solubility (mole fraction)
Write the number on its own, no unit after it.

Look up solubility (mole fraction): Cc1c(C(=O)c2c[nH]n(C)c2=O)ccc(S(C)(=O)=O)c1C1=NOCC1 0.000232

---

Settings: in n-propanol, 318.15 K
Quantity: solubility (mole fraction)
Write the number on its own, no unit after it.

Look up solubility (mole fraction): Cc1c(C(=O)c2c[nH]n(C)c2=O)ccc(S(C)(=O)=O)c1C1=NOCC1 0.000372

---

Settings: in isobutanol, 288.15 K
Quantity: solubility (mole fraction)
Write the number on its own, no unit after it.

Look up solubility (mole fraction): Cc1c(C(=O)c2c[nH]n(C)c2=O)ccc(S(C)(=O)=O)c1C1=NOCC1 5.6e-05

---

Settings: in ethyl acetate, 313.15 K
Quantity: solubility (mole fraction)

Look up solubility (mole fraction): Cc1c(C(=O)c2c[nH]n(C)c2=O)ccc(S(C)(=O)=O)c1C1=NOCC1 0.00153

---

Settings: in methyl acetate, 303.15 K
Quantity: solubility (mole fraction)
Write the number on its own, no unit after it.

Look up solubility (mole fraction): Cc1c(C(=O)c2c[nH]n(C)c2=O)ccc(S(C)(=O)=O)c1C1=NOCC1 0.00184

---

Settings: in ethanol, 318.15 K
Quantity: solubility (mole fraction)

Look up solubility (mole fraction): Cc1c(C(=O)c2c[nH]n(C)c2=O)ccc(S(C)(=O)=O)c1C1=NOCC1 0.000412

---

Settings: in n-butanol, 303.15 K
Quantity: solubility (mole fraction)

Look up solubility (mole fraction): Cc1c(C(=O)c2c[nH]n(C)c2=O)ccc(S(C)(=O)=O)c1C1=NOCC1 0.000178

---

Settings: in isobutyl acetate, 298.15 K
Quantity: solubility (mole fraction)

Look up solubility (mole fraction): Cc1c(C(=O)c2c[nH]n(C)c2=O)ccc(S(C)(=O)=O)c1C1=NOCC1 0.000627

---

Settings: in isopropyl acetate, 303.15 K
Quantity: solubility (mole fraction)
Write the number on its own, no unit after it.

Look up solubility (mole fraction): Cc1c(C(=O)c2c[nH]n(C)c2=O)ccc(S(C)(=O)=O)c1C1=NOCC1 0.000594

---

Settings: in n-butyl acetate, 313.15 K
Quantity: solubility (mole fraction)

Look up solubility (mole fraction): Cc1c(C(=O)c2c[nH]n(C)c2=O)ccc(S(C)(=O)=O)c1C1=NOCC1 0.000962

---

Settings: in n-propanol, 313.15 K
Quantity: solubility (mole fraction)

Look up solubility (mole fraction): Cc1c(C(=O)c2c[nH]n(C)c2=O)ccc(S(C)(=O)=O)c1C1=NOCC1 0.000284

---

Settings: in isopropyl acetate, 313.15 K
Quantity: solubility (mole fraction)
Write the number on its own, no unit after it.

Look up solubility (mole fraction): Cc1c(C(=O)c2c[nH]n(C)c2=O)ccc(S(C)(=O)=O)c1C1=NOCC1 0.000839

---

Settings: in n-propyl acetate, 318.15 K
Quantity: solubility (mole fraction)
Write the number on its own, no unit after it.

Look up solubility (mole fraction): Cc1c(C(=O)c2c[nH]n(C)c2=O)ccc(S(C)(=O)=O)c1C1=NOCC1 0.00145

---

Settings: in n-propanol, 293.15 K
Quantity: solubility (mole fraction)
Write the number on its own, no unit after it.

Look up solubility (mole fraction): Cc1c(C(=O)c2c[nH]n(C)c2=O)ccc(S(C)(=O)=O)c1C1=NOCC1 9.63e-05

---

Settings: in THF, 323.15 K
Quantity: solubility (mole fraction)
Write the number on its own, no unit after it.

Look up solubility (mole fraction): Cc1c(C(=O)c2c[nH]n(C)c2=O)ccc(S(C)(=O)=O)c1C1=NOCC1 0.00738

---

Settings: in isopropanol, 283.15 K
Quantity: solubility (mole fraction)
Write the number on its own, no unit after it.

Look up solubility (mole fraction): Cc1c(C(=O)c2c[nH]n(C)c2=O)ccc(S(C)(=O)=O)c1C1=NOCC1 3.8e-05

---

Settings: in isobutanol, 303.15 K
Quantity: solubility (mole fraction)

Look up solubility (mole fraction): Cc1c(C(=O)c2c[nH]n(C)c2=O)ccc(S(C)(=O)=O)c1C1=NOCC1 0.000137

---

Settings: in n-butyl acetate, 308.15 K
Quantity: solubility (mole fraction)
Write the number on its own, no unit after it.

Look up solubility (mole fraction): Cc1c(C(=O)c2c[nH]n(C)c2=O)ccc(S(C)(=O)=O)c1C1=NOCC1 0.000815
